- systemTested: Dystroglycan (Cricetulus griseus) (UniProt G3H8F4)
- protocolDescription: Increase of functional O-mannosylation of alpha-dystroglycan in Chinese hamster pro5 cells expressing LARGE after 48 hrs by alpha-screen assay
- Type: cell-based
Mark each entry TRUE if its EC1.5 sits below 10 µM, and FALSE for all others.

# molecule, systemTested, classLabel
measured = [
    ("CCC(c1nnnn1Cc1ccco1)N1CCN(c2nc3ccccc3s2)CC1 (stereo not given)", "Dystroglycan (Cricetulus griseus) (UniProt G3H8F4)", "TRUE"),
    ("CCC(c1nnnn1Cc1cccs1)N1CCN(c2nc3ccc(C(=O)OC)cc3s2)CC1 (stereo not given)", "Dystroglycan (Cricetulus griseus) (UniProt G3H8F4)", "FALSE"),
    ("CCC(c1nnnn1Cc1nccs1)N1CCN(c2nc3cccc(F)c3s2)CC1 (stereo not given)", "Dystroglycan (Cricetulus griseus) (UniProt G3H8F4)", "FALSE"),
    ("CC(C)CC(c1nnnn1Cc1cccs1)N1CCN(c2nc3ccccc3s2)CC1 (stereo not given)", "Dystroglycan (Cricetulus griseus) (UniProt G3H8F4)", "FALSE"),
    ("c1ccc(C(c2nnnn2Cc2cccs2)N2CCN(c3nc4ccccc4s3)CC2)cc1 (stereo not given)", "Dystroglycan (Cricetulus griseus) (UniProt G3H8F4)", "FALSE"),
]

Record CCC(c1nnnn1Cc1cccs1)N1CCN(c2nc3ccccc3s2)CC1 (stereo not given) : is its EC1.5 strictly below 10 µM?
TRUE

And for COc1ccc(Cn2nnnc2CN2CCN(c3nc4ccccc4s3)CC2)cc1 ?
FALSE

Now the same for CC(c1nnnn1Cc1cccs1)N1CCN(c2nc3ccccc3s2)CC1 (stereo not given)
TRUE

And then CCC(c1ccc(-c2nc3ccccc3s2)cc1)c1nnnn1Cc1cccs1 (stereo not given) , what is it?
FALSE

Next record, please: CCC(c1nnnn1Cc1cccs1)N1CCN(c2nc3ccccc3o2)CC1 (stereo not given)
TRUE

====

- systemTested: Dystroglycan (Cricetulus griseus) (UniProt G3H8F4)
- protocolDescription: Increase of functional O-mannosylation of alpha-dystroglycan in Chinese hamster pro5 cells expressing LARGE after 48 hrs by alpha-screen assay
- Assay type: cell-based
Each record here notes measured log10(EC1.5).
Give log10 of EC1.5, with EC1.5 taken in µM.

# compound, result
measured = [
    ("CCC(c1nnnn1Cc1cccs1)N1CCN(c2nc3ccc(OC)cc3s2)CC1 (centres undefined)", 0.85),
    ("CCC(c1nnnn1Cc1cccs1)N1CCN(c2nc3cc([N+](=O)[O-])cc(F)c3s2)CC1 (centres undefined)", 1.40),
    ("CCC(c1nnnn1Cc1cccs1)N1CCN(c2nc3cccc(C(=O)O)c3s2)CC1 (centres undefined)", 1.34),
    ("CCC(c1nnnn1Cc1cccs1)N1CCN(c2nc3cccc(F)c3s2)CC1 (centres undefined)", 0.41),
    ("CCC(c1nnnn1Cc1cccs1)N1CCN(Cc2nc3ccccc3s2)CC1 (centres undefined)", 1.81),
    ("CCC(c1nnnn1Cc1cccs1)N1CCN(C2=Nc3ccccc3C2)CC1 (centres undefined)", 1.45),
    ("CCC(c1nnnn1Cc1cccs1)N1CCN(c2nc3ccc([N+](=O)[O-])cc3s2)CC1 (centres undefined)", 1.51),
    ("CCC(c1nnnn1Cc1cccs1)N1CCN(c2nc3cccc(C(=O)OC)c3s2)CC1 (centres undefined)", 1.15),
    ("CCC(c1nnnn1Cc1cccs1)N1CCN(c2nc3ccc(NC(=O)CCCC[C@@H]4SC[C@@H]5NC(=O)N[C@@H]54)cc3s2)CC1 (some centres undefined)", 0.63),
    ("CCC(c1nnnn1Cc1cccs1)N1CCN(c2nc3cc(N)ccc3s2)CC1 (centres undefined)", 0.53),
]

Quick check: log10(EC1.5) of CCC(c1nnnn1Cc1cccs1)N1CCN(c2nc3ccc(C)cc3s2)CC1 (centres undefined) ?
1.18

What do you have for CCC(c1nnnn1Cc1cccs1)N1CCN(c2nc3ccc(Cl)cc3s2)CC1 (centres undefined) ?
1.11

====

Reported EC1.5 values for a set of molecules
- systemTested: UniProt G3H8F4
- protocolDescription: Increase of functional O-mannosylation of alpha-dystroglycan in Chinese hamster pro5 cells expressing LARGE after 48 hrs by alpha-screen assay
- Format: cell-based

Here is how some molecules turned out for EC1.5.
# molecule, EC1.5
records = [
    ("CCC(c1nnnn1Cc1cccs1)N1CCN(c2nc3cc(F)ccc3s2)CC1 (configuration not stated)", "> 64 µM"),
    ("CCC(c1nnnn1Cc1cccs1)N1CCN(c2nc3ccc(NC(=O)c4ccccc4C)cc3s2)CC1 (configuration not stated)", "> 64 µM"),
    ("c1ccc2sc(N3CCN(Cc4nnnn4C4CCCC4)CC3)nc2c1", "> 64 µM"),
    ("O=C(c1nnnn1Cc1cccs1)N1CCN(c2nc3ccccc3s2)CC1", "> 64 µM"),
    ("Fc1ccc(Cn2nnnc2CN2CCN(c3nc4ccccc4s3)CC2)cc1", "> 64 µM"),
    ("CCC(c1nnnn1-c1ccccc1)N1CCN(c2nc3ccccc3s2)CC1 (configuration not stated)", "> 64 µM"),
    ("CCC(NCCNc1nc2cccc(F)c2s1)c1nnnn1Cc1cccs1 (configuration not stated)", "> 64 µM"),
    ("CCC(c1nnnn1Cc1cccs1)N1CCN(c2nc3cccc(Br)c3s2)CC1 (configuration not stated)", "22 µM"),
    ("CCC(c1nnnn1Cc1cccs1)N1CCN(c2nc3ccc(N)cc3s2)CC1 (configuration not stated)", "11 µM"),
    ("CC(C)n1nnnc1CN1CCN(c2nc3ccccc3s2)CC1", "> 64 µM"),
]

Attention now turns to another entry.
Given the entry CCC(c1nnnn1Cc1cccs1)N1CCN(c2nc3ccc(NC(=O)c4ccccc4Cl)cc3s2)CC1 (configuration not stated) , report its measured EC1.5.
> 64 µM

====

- systemTested: Dystroglycan (Cricetulus griseus) (UniProt G3H8F4)
- Sequence (whole entry): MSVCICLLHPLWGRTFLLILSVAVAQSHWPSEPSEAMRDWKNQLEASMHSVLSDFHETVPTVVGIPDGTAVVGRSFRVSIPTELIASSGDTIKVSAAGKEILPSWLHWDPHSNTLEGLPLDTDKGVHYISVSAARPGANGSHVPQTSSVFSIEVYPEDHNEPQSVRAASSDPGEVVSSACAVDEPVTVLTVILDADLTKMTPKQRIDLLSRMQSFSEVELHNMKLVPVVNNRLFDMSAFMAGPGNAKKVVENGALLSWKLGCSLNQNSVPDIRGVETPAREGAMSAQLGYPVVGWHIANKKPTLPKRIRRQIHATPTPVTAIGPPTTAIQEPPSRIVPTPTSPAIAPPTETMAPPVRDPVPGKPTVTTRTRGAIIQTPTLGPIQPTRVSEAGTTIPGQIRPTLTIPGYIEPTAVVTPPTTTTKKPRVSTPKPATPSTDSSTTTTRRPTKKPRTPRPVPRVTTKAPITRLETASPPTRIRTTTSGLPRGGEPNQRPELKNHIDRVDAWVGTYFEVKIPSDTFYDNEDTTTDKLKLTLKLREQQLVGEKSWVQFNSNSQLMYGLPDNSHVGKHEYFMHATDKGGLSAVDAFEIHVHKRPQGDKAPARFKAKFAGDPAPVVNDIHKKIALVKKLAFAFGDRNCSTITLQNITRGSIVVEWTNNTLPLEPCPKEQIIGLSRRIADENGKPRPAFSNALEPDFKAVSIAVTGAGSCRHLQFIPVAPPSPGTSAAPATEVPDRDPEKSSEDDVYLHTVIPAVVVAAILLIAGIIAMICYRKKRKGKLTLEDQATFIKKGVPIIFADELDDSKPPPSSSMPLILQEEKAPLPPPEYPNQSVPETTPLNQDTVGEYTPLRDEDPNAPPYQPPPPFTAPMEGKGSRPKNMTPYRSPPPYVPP
- protocolDescription: Increase of functional O-mannosylation of alpha-dystroglycan in Chinese hamster pro5 cells expressing LARGE after 48 hrs by alpha-screen assay
- Assay type: cell-based
endpoint: EC1.5 (µM)
Please reply with the bare figure in µM and do not write the unit itself.

EC1.5 for CCCC(c1nnnn1Cc1cccs1)N1CCN(c2nc3ccccc3s2)CC1 (stereo unspecified) ?
34

Entry CCC(c1nnnn1Cc1cccs1)N1CCN(c2nc3ccc(F)cc3s2)CC1 (stereo unspecified) please
21

Follow-up item: CCC(c1nnnn1Cc1cccs1)N1CCN(c2nc3ccccc3[nH]2)CC1 (stereo unspecified)
17

====

- systemTested: Dystroglycan (Cricetulus griseus) (UniProt G3H8F4)
- protocolDescription: Increase of functional O-mannosylation of alpha-dystroglycan in Chinese hamster pro5 cells expressing LARGE after 48 hrs by alpha-screen assay
- Assay type: cell-based
endpoint: EC1.5

# molecule, endpoint, result
data = [
    ("CCC(c1nnnn1Cc1ccccc1)N1CCN(c2nc3ccccc3s2)CC1 (stereo not drawn)", "EC1.5", "> 64 µM"),
    ("CCC(c1nnnn1Cc1cccs1)N1CCN(c2nc3cc([N+](=O)[O-])ccc3s2)CC1 (stereo not drawn)", "EC1.5", "> 64 µM"),
]

What EC1.5 value was documented for this molecule, CCC(c1nnnn1Cc1cccs1)N1CCN(c2nc3ccc(-c4ccccc4)cc3s2)CC1 (stereo not drawn) ?
> 64 µM
